# Test system: Ba/F3-WT (wild type) cells
# experiment: Ba/F3 Proliferation Assay, Ba/F3-WT (wild type) cells with mIL-3 (Resazurin)
# Format: cell-based
# run_parameters: Mus musculus, BaF3, 48 h, Ba/F3-WT cells +mIL-3, 48-hour incubation
pEC50: −log10 of the molar value.
measurement_name: pEC50

Examples with their reported pEC50 follow.
> print(dat)
                                   compound  observed
1  Cn1ccc(-c2cc3ncccc3c(OC[C@@]3(C)CNCCO3)n2)c1      5.15
2  CC1(C)CNC[C@@H](COc2cc(-c3ccn(C4CC4(F)F)c3)cc3ncccc23)O1 (stereo partly drawn)      5.49
3  CC(C)n1ccc(-c2cc3ncccc3c(O[C@H](C)[C@@H]3CNCCO3)n2)c1      5.57
4  CCc1ccc(-c2cc3ncccc3c(OC[C@@H]3CNCCO3)n2)s1      5.69
5  Cn1ccc(-c2cc(OC[C@@H]3CNCCO3)c3cncnc3c2)c1      5.30
6  CC(C)(C)n1ccc(-c2cc(OC[C@@H]3CNCC4(CC4)O3)c3cccnc3c2)c1      5.27

a = CCn1ccc(-c2cc(O[C@H](C)[C@@H]3CNCCO3)c3nccnc3c2)c1
b = Cn1ccc(-c2cc(OC[C@@H]3CNCC4(CC4)O3)c3cccnc3c2)c1
When a and b are compared, which has the higher number for pEC50? Give the label of your selection.
a

From: patent US20250263408A1
